- Target Under Test: T1, GFP-9S library array, motif 4 ND N98Y;D124I (synthetic construct, N98Y;D124I)
- T1 chain: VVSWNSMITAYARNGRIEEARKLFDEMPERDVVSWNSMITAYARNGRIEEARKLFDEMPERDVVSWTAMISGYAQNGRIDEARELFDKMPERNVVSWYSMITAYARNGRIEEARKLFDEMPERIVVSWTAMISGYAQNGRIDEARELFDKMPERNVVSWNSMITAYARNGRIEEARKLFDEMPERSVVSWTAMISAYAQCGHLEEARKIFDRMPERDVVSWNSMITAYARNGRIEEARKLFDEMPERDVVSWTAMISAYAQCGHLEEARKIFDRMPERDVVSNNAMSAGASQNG
- Experiment Description: high-throughput RNA pulldown from lysate on Ni-NTA beads; HRP: 50 mM Tris pH 8, 150 mM NaCl, 1 mM beta-mercaptoethanol, 50 ug/ml BSA, 3 ug/ml yeast RNA, 0.5% heparin; ITC and FP: Tris pH 8, 200 mM KCl, 5% glycerol; MST: 50 mM Tris pH 8, 200 mM NaCl, 1 mM DTT, BSA, heparin, 0.05% Tween 20
- Conditions Used: tags: N-terminal His-eGFP; label: 5' Cy5
# Kd listing for each entry below
I only need the number, in nM, no unit after it.

{"columns": ["Binder", "Measurement Unit", "Kd"],
 "data": [
  ["AUUAGACGUGA (ssRNA) [Cy5-rpoA-G]", "nM", 112]
]}

Now let's try a different one.
Q: Please give measured Kd of the following entry: AUUACACGUGA (ssRNA) [Cy5-rpoA]
Result: 109
